Where do the numbers come from? From PubChem BioAssay (NCI).

# Tested on: MDA-MB-231 breast
# assay_details: NCI-60 one-dose screen, 48 h
# conditions_used: 10 µM unless noted
About 83,000 compounds went through this panel and 20% of them were active in at least one assay; those are over-represented in the sample as a whole. Calls of active or inactive are those of the source. Rule for the calls: active = growth percent below 10; inactive = the rest.
Outcome codes: Y for active, N for inactive

| input_smiles | label_class |
| --- | --- |
| Cc1ccc(OCc2occc2C(=O)N2CCOCC2)cc1 | N |
| N#Cc1c(-c2cccs2)cc(-c2cnccn2)nc1SCC(=O)N/N=C/c1cccs1 | N |
| COc1ccc(C(C)=C(c2ccc(OCCN(C)C)cc2)c2ccc(OCCN(C)C)cc2)cc1 | Y |
| Cn1cc(C2=C(c3coc4cc(Br)ccc34)C(=O)NC2=O)c2ccccc21 | N |
| O=C(CSc1nnc(-c2ccc(Cl)cc2)n1-c1ccccc1)Nc1ccc(Cl)cc1 | N |

###

The compounds listed here are annotated with their growth.
# System: UO-31 renal
# assay_details: NCI-60 one-dose screen, 48 h (100 = growth as untreated, 0 = no growth, -100 = all killed)
# conditions_used: 10 µM unless noted
The panel holds about 83,000 compounds, 20% with a hit somewhere; the sample as a whole holds those more often. Activity calls are given as the source filed them. The calls were made as follows: active = growth percent below 10; inactive = the rest.
quantity_measured: growth

| input_smiles | val |
| --- | --- |
| CCCCCCNC(=O)Oc1ccc(/C(=C(/C)c2ccc(OC)cc2)c2ccc(OCCN3CCCCCC3)cc2)cc1 | 6.69% (active) |
| CCOC(=O)c1ccc(NC2=C(Cl)C(=O)c3nc(C)ccc3C2=O)cc1 | 2.37% (active) |
| C#CCN(C)CCCOc1ccc(NCc2ccc(/C=C/C(=O)NO)cc2)cc1Cl | -57.4% (active) |
| NC1CC2(CCN(c3cnc(C(=O)Nc4cc(F)cc5cccnc45)cn3)CC2)C1 | 76.1% (inactive) |
| COc1ccc(/C(=N\NC(N)=S)c2ccc(Cl)cc2)cc1OC | 34.5% (inactive) |
| C#Cc1nc(/C=C/C(=O)NO)cs1 | -94% (active) |
| CC1=C(C)C(=O)C(Nc2ccc(C)cc2)=C(Br)C1=O | 87.5% (inactive) |
| CC(=O)c1cc(C(=O)N2c3ccccc3Sc3ccccc32)n2c1ccc1ccccc12 | 64.6% (inactive) |
| Oc1[nH]c2ccc(Cl)cc2c1N=Nc1nc(N=Nc2c(O)[nH]c3ccc(Cl)cc23)nc(N2CCOCC2)n1 | 78.7% (inactive) |
| COc1ccc(C(C)=C(c2ccc(OCCN(C)C)cc2)c2ccc(OCCN(C)C)cc2)cc1 | -59.4% (active) |

###

# Tested on: OVCAR-3 ovarian
# assay_details: NCI-60 one-dose screen, 48 h (100 = growth as untreated, 0 = no growth, -100 = all killed)
# conditions_used: 10 µM unless noted
The panel holds about 83,000 compounds, 20% with a hit somewhere; the sample as a whole holds those more often.
The compounds listed here are annotated with their growth.
quantity_measured: growth (%)

| input_smiles | quantity_measured | val |
| --- | --- | --- |
| C#CCOc1cccc(/C(N)=N/C(N)=N/c2nc3ccccc3s2)c1 | growth | 104 |
| C#C[C@]1(O)CC[C@H]2[C@@H]3CC=C4c5sc(Nc6cc(C)cc(C)c6)nc5CC[C@]4(C)[C@H]3CC[C@@]21C | growth | 48.9 |
| Cn1c(SCC(=O)c2ccco2)nc2ccccc2c1=O | growth | 107 |
| O=C(CSc1nc2ccccc2c(=O)n1-c1ccc(Cl)c(Cl)c1)Nc1ccc(S(=O)(=O)Nc2ccc(Cl)nn2)cc1 | growth | 106 |
| COc1ccccc1Cn1cc(C#N)c(N)c1C(=O)c1ccc(Br)cc1 | growth | 104 |

###

# Tested on: OVCAR-3 ovarian
# assay_details: NCI-60 one-dose screen, 48 h (100 = growth as untreated, 0 = no growth, -100 = all killed)
# conditions_used: 10 µM unless noted
The panel holds about 83,000 compounds, 20% with a hit somewhere; the sample as a whole holds those more often. The source made the active and inactive calls. The calls were made as follows: active = growth percent below 10; inactive = the rest.
The molecules listed here are annotated with their growth.
quantity_measured: growth

| molecule | target_desc | val |
| --- | --- | --- |
| C=C(C)[C@@H]1CC[C@]2(C(=O)N3CCN(C)CC3)CC[C@]3(C)[C@H](CC[C@@H]4[C@@]5(C)CC[C@H](OP(=O)(OCC)OCC)C(C)(C)[C@@H]5CC[C@]43C)[C@@H]12 | OVCAR-3 ovarian | 100% (inactive) |
| C#CCN(C)CCCOc1ccc(NC(=O)CCCCCCC(=O)NO)cc1Cl | OVCAR-3 ovarian | 27.8% (inactive) |
| Cc1[nH]c(C(=O)Nc2ccccc2OCc2cccc(C(=O)NC3CCCNC3)c2)c(Cl)c1Cl (stereo not drawn) | OVCAR-3 ovarian | -85.7% (active) |
| CCN(CC)CCOc1ccc(C(=C(C)c2ccc(OC)cc2)c2ccc(OCCN(CC)CC)cc2)cc1 | OVCAR-3 ovarian | -4.04% (active) |
| CN1CCN(c2ccc(Nc3nc(NCCCNS(=O)(=O)c4ccc(F)cc4)c4sccc4n3)cc2)CC1 | OVCAR-3 ovarian | 97.4% (inactive) |
| C#Cc1cc(OC)c(C(=O)Nc2ccc(F)cc2C(=O)Nc2cccc(S(=O)(=O)C(F)(F)F)c2)cn1 | OVCAR-3 ovarian | -30.2% (active) |
| O=C(CSc1nnc(-c2cccs2)n1-c1ccccc1)Nc1ccccc1F | OVCAR-3 ovarian | 86.9% (inactive) |
| CCCCCN1C(=O)/C(=c2\sc3n(c2=O)C2C(NN=3)N(CC)C(=O)N2CC)c2cccc(C)c21 (stereo not drawn) | OVCAR-3 ovarian | 32.9% (inactive) |

###

# Tested on: NCI-H23 lung
# assay_details: NCI-60 one-dose screen, 48 h (100 = growth as untreated, 0 = no growth, -100 = all killed)
# conditions_used: 10 µM unless noted
# Description: Growth inhibition of the NCI-H23 human Non-Small Cell Lung tumor cell line is measured as a screen for anti-cancer activity. Cells are grown in 96 well plates and exposed to the test compound for 48 hours. Compounds are tested at a single concentration, which is 10^-5 M for most compounds. The reported endpoint is percent growth (GI% or GIPRCNT), where numbers from 0 - 100% represent growth inhibition, and numbers from -100% - 0 represent cell death. […]
Compounds without any hit were thinned out: in the full panel of roughly 83,000, 20% have a hit.
Rule: measured growth below 80% gets T; anything equal to or greater than 80% gets F.

| compound | target_desc | label_class |
| --- | --- | --- |
| CCCN1C=C/C(=C\C(=O)n2ccc3ccccc32)c2ccccc21 | NCI-H23 lung | T |
| O=C(CCCCCCNC(=O)C(O)(O)C(F)(F)F)Nc1ncc(-c2ccccc2)s1 | NCI-H23 lung | T |
| CCn1c2ccc(/C=N/N(C)S(=O)(=O)CCN(C)C)cc2c2cc(/C=N/N(C)S(=O)(=O)CCN(C)C)ccc21 | NCI-H23 lung | T |
| C=C(C)[C@@H]1CC[C@]2(C(=O)NC3CCCCC3)CC[C@]3(C)[C@H](CC[C@@H]4[C@@]5(C)CC[C@H](N)C(C)(C)[C@@H]5CC[C@]43C)[C@@H]12 | NCI-H23 lung | F |
| COc1ccccc1N1CCN(C2=C(Cl)C(=O)c3ncccc3C2=O)CC1 | NCI-H23 lung | T |
| Nc1ncc(-c2ccc3ncnc(NCc4ccccc4)c3c2)cn1 | NCI-H23 lung | T |
| O=S(=O)(NCCCNc1nccc(-c2[nH]c(-c3ccccc3)nc2-c2ccc(F)c(O)c2)n1)c1ccccc1 | NCI-H23 lung | F |
| CC(Nc1ncnc2ccc(-c3cnc(N)nc3)cc12)c1ccccc1 (centres undefined) | NCI-H23 lung | T |
| Cn1cc(-c2nnc(N)nc2-c2c[nH]c3ccc(Br)cc23)c2cc(Br)ccc21 | NCI-H23 lung | F |
| COc1ccc(C(C)=C(c2ccc(OCCN(C)C)cc2)c2ccc(OCCN(C)C)cc2)cc1 | NCI-H23 lung | T |
| CCOC(=O)c1cccc(NC2=C(Cl)C(=O)C(C)=C(C)C2=O)c1 | NCI-H23 lung | F |
| O=C(Nc1cccc(Cl)c1)Nc1nc2cc([N+](=O)[O-])ccc2o1 | NCI-H23 lung | T |
| CC(=O)N1N=C(c2cc3ccccc3oc2=O)CC1c1cn(-c2ccccc2)nc1-c1ccc(C)cc1 (centres undefined) | NCI-H23 lung | F |
| CC(C)(C)c1cc(NC(=O)Nc2ccc(-c3cn4c5c(sc4n3)CCc3c[nH]cc3-5)cc2)no1 | NCI-H23 lung | T |
| COc1ccc(/C=N/NC(=O)c2c(N)nn(C)c2Nc2ccccc2)cc1 | NCI-H23 lung | T |
| Cc1ccc2c(n1)C(=O)C(Cl)=C(Nc1ccccc1C(=O)OC(C)(C)C)C2=O | NCI-H23 lung | T |
| CCOC(=O)c1c(N)c(C#N)cn1Cc1ccc(Cl)cc1Cl | NCI-H23 lung | F |
